Please go through the items and note down their EC50.
system: HCV replicon (BB7 sequence) in Huh-7-Clone A cells; experiment: HCV replicon assay: ELISA of NS5A protein in replicon-containing cells (Inhibition of Viral RNA Replication); format: cell-based; settings: Hepatitis C virus; HCV replicon assay; ranges of EC50; read-out: Replicon

# return recorded EC50 for entry CNC(=O)c1c(-c2ccc(F)cc2)oc2cc(N(C)S(C)(=O)=O)c(OCc3cc(OC)cc(OC)c3)cc12 [Example 352]
< 1000 nM

# return recorded EC50 for entry CCN(c1cc2oc(-c3ccc(F)cc3)c(C(=O)NC)c2cc1OC(C)C)S(C)(=O)=O [Example 255]
< 1000 nM

# return recorded EC50 for entry CCc1cc2c(C(=O)NC)c(-c3ccc(F)cc3)oc2cc1N(Cc1cscn1)S(C)(=O)=O [Example 343]
< 1000 nM

# return recorded EC50 for entry CNC(=O)c1c(-c2ccc(F)cc2)oc2cc(N(C)S(C)(=O)=O)c(OCc3ccc(F)c(F)c3)cc12 [Example 346]
< 1000 nM

# return recorded EC50 for entry CNC(=O)c1c(-c2ccc(F)cc2)oc2cc(N(Cc3c(C)noc3C)S(C)(=O)=O)c(OC(C)C)cc12 [Example 284]
< 10000 nM

###

biological target: HCV NS5B (Hepatitis C virus genotype 1b, UniProt Q9WMX2); construct: fusion protein, of which the carboxyl terminal 21 amino acids were removed to enhance its solubility; His tag (GSHHHHHH); made in house; host or cells: E. coli; test: Inhibition of viral RNA-dependent RNA polymerase (RdRp), in vitro biochemical assay; set-up: species or system HCV genotype 1b virus (BB7); conditions: HCV NS5B RdRp, BB7; reported as range class; read-out: HCV pol-BB7 IC50
READOUT_TYPE: IC50

# return recorded IC50 for entry CNC(=O)c1c(-c2ccc(F)cc2)oc2cc(-c3cc(C)nn3C)c(OC(C)C)cc12
500 to 5000 nM

# return recorded IC50 for entry CNC(=O)c1c(-c2ccc(F)cc2)oc2cc(-c3ccn(C)n3)c(OC(C)C)cc12
500 to 5000 nM

# return recorded IC50 for entry CNC(=O)c1c(-c2ccc(F)cc2)oc2cc(N(CCOC)S(C)(=O)=O)c(OC)cc12
≤ 500 nM

# return recorded IC50 for entry CNC(=O)c1c(-c2ccc(F)cc2)oc2cc(N)c(O)cc12
500 to 5000 nM

# return recorded IC50 for entry CNC(=O)c1c(-c2ccc(F)cc2)oc2cc(C(C)(C)O)c(OC(C)C)cc12
≤ 500 nM

# return recorded IC50 for entry CNC(=O)c1c(-c2ccc(F)cc2)oc2cc(OCc3nnnn3C)c(OC)cc12
≤ 500 nM

# return recorded IC50 for entry CNC(=O)c1c(-c2ccc(F)cc2)oc2cc(-c3cncs3)c(OC(C)C)cc12
≤ 500 nM

# return recorded IC50 for entry CNC(=O)c1c(-c2ccc(F)cc2)oc2cc(-c3c(C)n[nH]c3C)c(OC(C)C)cc12
≤ 500 nM

# return recorded IC50 for entry CNC(=O)c1c(-c2ccc(F)cc2)oc2cc(N3CCOCC3)c(OCc3cnc[nH]3)cc12
≤ 500 nM

# return recorded IC50 for entry CNC(=O)c1c(-c2ccc(F)cc2)oc2cc(N(CCOC)S(C)(=O)=O)c(OC(C)C)cc12
≤ 500 nM

# return recorded IC50 for entry CNC(=O)c1c(-c2ccc(F)cc2)oc2cc(-c3cc(C)n[nH]3)c(OC(C)C)cc12
500 to 5000 nM

# return recorded IC50 for entry CNC(=O)c1c(-c2ccc(F)cc2)oc2cc(-c3noc(C(F)(F)F)n3)c(OC(C)C)cc12
500 to 5000 nM

# return recorded IC50 for entry CC(C)Oc1cc2c(C(=O)NC3CC3)c(-c3ccc(F)cc3)oc2cc1NS(C)(=O)=O
≤ 500 nM

# return recorded IC50 for entry CNC(=O)c1c(-c2ccc(F)cc2)oc2cc(N3CCOCC3)c(OCc3cc(C)on3)cc12
≤ 500 nM

# return recorded IC50 for entry C=CCN(c1cc2oc(-c3ccc(F)cc3)c(C(=O)NC)c2cc1OC(C)C)S(C)(=O)=O
≤ 500 nM

# return recorded IC50 for entry CNC(=O)c1c(-c2ccc(F)cc2)oc2cc(CN(C)C)c(OC(C)C)cc12
5000 to 30000 nM

# return recorded IC50 for entry CNC(=O)c1c(-c2ccc(F)cc2)oc2cc(N3CCOCC3)c(OCc3noc(C(C)(C)C)n3)cc12
≤ 500 nM

# return recorded IC50 for entry CNC(=O)c1c(-c2ccc(F)cc2)oc2cc(-c3cn[nH]c3)c(OC(C)C)cc12
5000 to 30000 nM

# return recorded IC50 for entry CNC(=O)c1c(-c2ccc(F)cc2)oc2cc(N3CCN(C(N)=O)CC3)c(OC(C)C)cc12
5000 to 30000 nM

# return recorded IC50 for entry CNC(=O)c1c(-c2ccc(F)cc2)oc2cc(-c3ccn[nH]3)c(OC(C)C)cc12
≤ 500 nM

###

Please go through the items and note down their pIC50.
biological target: HCV NS5B (Hepatitis C virus genotype 1b, UniProt Q9WMX2); construct: fusion protein, of which the carboxyl terminal 21 amino acids were removed to enhance its solubility; His tag (GSHHHHHH); made in house; host or cells: E. coli; assay: Inhibition of viral RNA-dependent RNA polymerase (RdRp), in vitro biochemical assay; parameters: species or system HCV genotype 1b virus (BB7); settings: purified His-tagged NS5B (BB7), carboxyl terminal 21 amino acids removed; read-out: HCV pol-BB7 IC50
pIC50: −log10 of the molar value.

# return recorded pIC50 for entry CNC(=O)c1c(-c2ccc(F)cc2)oc2cc(C3CNC(=O)O3)c(OC)cc12 (stereo not shown)
≥ 6.30

# return recorded pIC50 for entry CNC(=O)c1c(-c2ccc(F)cc2)oc2cc(N3CCOCC3)c(OC(C)C)cc12
≥ 6.30

# return recorded pIC50 for entry CNC(=O)c1c(-c2ccc(F)cc2)oc2cc(N(CC(C)=O)S(C)(=O)=O)c(OC(C)C)cc12
≥ 6.30

# return recorded pIC50 for entry CCc1ccc2oc(-c3ccccc3)c(C(=O)NC)c2c1
5.30 to 6.30

# return recorded pIC50 for entry CNC(=O)c1c(-c2ccc(F)cc2)oc2cc(C3CCCN3C(C)=O)c(OC)cc12 (stereo not shown)
≥ 6.30

# return recorded pIC50 for entry CCOc1ccc2oc(-c3ccccc3)c(C(=O)NC)c2c1
5.30 to 6.30

# return recorded pIC50 for entry CNC(=O)c1c(-c2ccc(F)cc2)oc2ccc(OC)cc12
≥ 6.30

# return recorded pIC50 for entry CNC(=O)c1c(-c2ccc(F)cc2)oc2ccc(C)cc12
5.30 to 6.30

# return recorded pIC50 for entry CNC(=O)c1c(-c2ccc(F)cc2)oc2ccc(OC(C)C)cc12
5.30 to 6.30

# return recorded pIC50 for entry CNC(=O)c1c(-c2ccc(F)cc2)oc2cc(C)c(OC(C)C)cc12
≥ 6.30

###

test system: HCV replicon (BB7 sequence) in Huh-7-Clone A cells; assay: HCV replicon assay: ELISA of NS5A protein in replicon-containing cells (Inhibition of Viral RNA Replication); type: cell-based; details: Hepatitis C virus; HCV replicon assay; ranges of EC50; read-out: Replicon
pEC50: −log10 of the molar value.
READOUT_TYPE: pEC50

# return recorded pEC50 for entry CNC(=O)c1c(-c2ccc(F)cc2)oc2cc(N(C)S(C)(=O)=O)c(OCc3nnnn3C)cc12
> 6.00

# return recorded pEC50 for entry CNC(=O)c1c(-c2ccc(F)cc2)oc2cc(-c3cc(COC(C)C)on3)c(OC)cc12
> 6.00

# return recorded pEC50 for entry CNC(=O)c1c(-c2ccc(F)cc2)oc2cc(N(CC(O)c3ccc(F)cc3)S(C)(=O)=O)c(OC(C)C)cc12 (centres unmarked)
> 6.00

# return recorded pEC50 for entry CNC(=O)c1c(-c2ccc(F)cc2)oc2cc(N3CCOCC3)c(OCc3cccc(C(=O)O)c3)cc12
> 5.00

# return recorded pEC50 for entry CNC(=O)c1c(-c2ccc(F)cc2)oc2cc(N(Cc3ccncc3)S(C)(=O)=O)c(OC)cc12
> 6.00

###

Target: HCV NS5B (Hepatitis C virus genotype 1b)
Construct: fusion protein, of which the carboxyl terminal 21 amino acids were removed to enhance its solubility; His tag (GSHHHHHH); made in house; host or cells: E. coli
Assay: Inhibition of viral RNA-dependent RNA polymerase (RdRp), in vitro biochemical assay
Design: species or system HCV genotype 1b virus (BB7)
Details: purified His-tagged NS5B (BB7), carboxyl terminal 21 amino acids removed; read-out: HCV pol-BB7 IC50
Experimental: The HCV NS5B-directed RdRp activity was established and characterized in a standard in vitro biochemical assay using a purified HCV NS5B protein derived from the consensus sequence of a patient infected with HCV genotype 1b virus (BB7). […] In addition to evaluating their activity in the replicon assay, representative compounds within the scope of the present invention, as shown in examples 1-453 of Table 1, were also evaluated for antiviral activity using this assay. […]
READOUT_TYPE: IC50

# return recorded IC50 for entry CNC(=O)c1c(-c2ccc(F)cc2)oc2cc(NC)c(OC(C)C)cc12
≤ 500 nM

# return recorded IC50 for entry CNC(=O)c1c(-c2ccc(O)cc2)oc2ccc(OC(C)C)cc12
500 to 5000 nM

# return recorded IC50 for entry CNC(=O)c1c(-c2ccc(F)cc2)oc2ccc(OCC(F)(F)F)cc12
500 to 5000 nM

# return recorded IC50 for entry CNC(=O)c1c(-c2ccc(F)c(F)c2)oc2ccc(OC)cc12
≤ 500 nM

# return recorded IC50 for entry CNC(=O)c1c(-c2ccc(F)cc2)oc2cc(NCCOC)c(OC(C)C)cc12
≤ 500 nM

# return recorded IC50 for entry CNC(=O)c1c(-c2ccccc2)oc2ccc(C(C)C)cc12
≤ 500 nM

# return recorded IC50 for entry CNC(=O)c1c(-c2ccc(Cl)s2)oc2ccc(OC)cc12
≤ 500 nM

# return recorded IC50 for entry CNC(=O)c1c(-c2ccc(F)cc2)oc2cc(N3CCOCC3)c(OCc3nccs3)cc12
≤ 500 nM

# return recorded IC50 for entry CNC(=O)c1c(-c2ccc(C(F)(F)F)cc2)oc2ccc(OC)cc12
500 to 5000 nM

# return recorded IC50 for entry CNC(=O)c1c(-c2ccc(F)cc2)oc2cc(C)c(OC)cc12
≤ 500 nM

# return recorded IC50 for entry CCc1ccc(-c2oc3ccc(F)cc3c2C(=O)NC)cc1
≤ 500 nM

# return recorded IC50 for entry CCCCOc1ccc2oc(-c3ccccc3)c(C(=O)NC)c2c1
500 to 5000 nM

# return recorded IC50 for entry CNC(=O)c1c(-c2ccc(F)cc2)oc2ccc(Cl)cc12
500 to 5000 nM

# return recorded IC50 for entry CNC(=O)c1c(-c2ccoc2)oc2ccc(OC)cc12
500 to 5000 nM

# return recorded IC50 for entry CNC(=O)c1c(-c2cccnc2)oc2ccc(Cl)cc12
500 to 5000 nM
